Each recorded value in this set is attributed to PubChem BioAssay AID1851.

# activity, negative = inhibition annotations
Molecular target: Cytochrome P450 1A2 (Homo sapiens) (UniProt P05177)
Sequence (P05177 whole entry, looked up): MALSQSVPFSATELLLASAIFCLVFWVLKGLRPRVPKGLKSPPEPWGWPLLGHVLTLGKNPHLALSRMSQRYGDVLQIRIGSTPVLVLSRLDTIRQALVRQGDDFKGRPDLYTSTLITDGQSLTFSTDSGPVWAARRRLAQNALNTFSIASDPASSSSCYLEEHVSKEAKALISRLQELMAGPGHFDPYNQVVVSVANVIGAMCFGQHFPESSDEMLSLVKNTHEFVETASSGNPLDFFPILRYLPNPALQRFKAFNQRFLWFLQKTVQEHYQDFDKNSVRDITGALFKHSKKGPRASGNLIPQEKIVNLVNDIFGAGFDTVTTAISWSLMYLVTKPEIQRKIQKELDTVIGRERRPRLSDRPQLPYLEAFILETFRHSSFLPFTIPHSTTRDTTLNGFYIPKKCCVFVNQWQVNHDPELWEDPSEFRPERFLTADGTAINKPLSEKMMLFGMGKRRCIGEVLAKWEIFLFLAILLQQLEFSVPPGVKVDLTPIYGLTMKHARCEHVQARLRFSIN
Experiment: Cytochrome panel assay with activity outcomes; as to activity, negative = inhibition: % is scaled to controls: 0 for no effect and ±100 for the full control effect
Conditions: recombinant CYP, pro-luciferin dealkylation, luminescence, p450-cyp1a2; series mostly up to 57.1 µM
The campaign covered roughly 16,000 compounds. About 5,700 (36%) were called active. Roughly 24% stayed inconclusive and do not appear here. The list shows a part of the results.
Quantity: activity, negative = inhibition

> print(dat)
                           molecular.string                             target.system                         reading
1                        NCc1ccc(C(=O)O)cc1  Cytochrome P450 1A2 (Homo sapiens) (UniProt P05177)  -4.79% [at 2.29 µM] (inactive)
2  O=C1c2ccccc2C(=O)N1C[C@]1(C(=O)O)NCCS1(=O)=O  Cytochrome P450 1A2 (Homo sapiens) (UniProt P05177)   -5.5% [at 2.29 µM] (inactive)
3  CC1=N[C@@](C)(COC(=O)[C@]2(C)N[C@](C)(CO)CO2)COC1=O  Cytochrome P450 1A2 (Homo sapiens) (UniProt P05177)   6.88% [at 2.29 µM] (inactive)
4              N[C@H](C(=O)O)[C@H](N)C(=O)O  Cytochrome P450 1A2 (Homo sapiens) (UniProt P05177)  -13.3% [at 11.4 µM] (inactive)
5  NC(=O)c1nnn(Cc2cc(Cl)c(C(=O)c3ccc(Cl)cc3)c(Cl)c2)c1N  Cytochrome P450 1A2 (Homo sapiens) (UniProt P05177)  -2.19% [at 2.29 µM] (inactive)
6     O=S(=O)(c1cnccc1N1CCN(CCO)CC1)N1CCCC1  Cytochrome P450 1A2 (Homo sapiens) (UniProt P05177)  -8.25% [at 2.29 µM] (inactive)

###

Biological target: Cytochrome P450 1A2 (Homo sapiens) (UniProt P05177)
Assay: Cytochrome panel assay with activity outcomes
Conditions: recombinant CYP, pro-luciferin dealkylation, luminescence, p450-cyp1a2; series mostly up to 57.1 µM
Protocol: The P450 gene superfamily is involved in the metabolism and clearance of xenobiotics. This assay used various human CYP P450 isozymes to measure the dealkylation of various pro-luciferin substrates to luciferin. The luciferin is then measured by luminescence after the addition of a luciferase detection reagent. […] Inhibitors and some substrates limit the production of luciferin, and decrease measured luminescence. […] 8, Detection, 1 sec, ViewLux luminescent read […]
The campaign covered roughly 16,000 compounds. About 5,700 (36%) were called active. Not shown: some 24% with an inconclusive outcome. This is one part of the list.
Quantity: AC50

> print(dat)
                                   molecule                             target.system  quantity           reading
1  COc1ccc(CCNC(=O)c2nnn(CC(=O)Nc3ccccc3C)c2N)cc1OC  Cytochrome P450 1A2 (Homo sapiens) (UniProt P05177)      AC50          inactive
2  c1ccc(C2CCC(N3CCC(N4CCCCC4)CC3)CC2)cc1 (centres undefined)  Cytochrome P450 1A2 (Homo sapiens) (UniProt P05177)      AC50          inactive
3  COCCn1c(=O)c(-c2cccc(C#N)c2)nc2cnc(Oc3ccccc3)nc21  Cytochrome P450 1A2 (Homo sapiens) (UniProt P05177)      AC50  15.8 µM (active)
4  Cc1c(Cl)cccc1NC(=O)CN1CCC(C(O)(c2ccccc2)c2ccccc2)CC1  Cytochrome P450 1A2 (Homo sapiens) (UniProt P05177)      AC50          inactive
5  Cc1nn(-c2nc3ccccc3[nH]2)c(N)c1-c1ccc(Cl)cc1  Cytochrome P450 1A2 (Homo sapiens) (UniProt P05177)      AC50  5.62 µM (active)
6  COc1ccc(C(=O)COC(=O)c2ccc(NC(=O)c3ccccc3)cc2)cc1  Cytochrome P450 1A2 (Homo sapiens) (UniProt P05177)      AC50          inactive
7  COc1ccc2c(C=Nc3c(C)n(C)n(-c4ccccc4)c3=O)c(O)n(Cc3ccco3)c(=O)c2c1  Cytochrome P450 1A2 (Homo sapiens) (UniProt P05177)      AC50          inactive
8  CCCS(=O)(=O)N1CCCC(C(=O)NCC2CCCO2)C1 (centres undefined)  Cytochrome P450 1A2 (Homo sapiens) (UniProt P05177)      AC50          inactive
9           Cc1cccc(C(=O)c2ccccc2C(=O)O)c1O  Cytochrome P450 1A2 (Homo sapiens) (UniProt P05177)      AC50          inactive

###

Biological target: Cytochrome P450 1A2 (Homo sapiens) (UniProt P05177)
Assay: Cytochrome panel assay with activity outcomes
Conditions: recombinant CYP, pro-luciferin dealkylation, luminescence, p450-cyp1a2; series mostly up to 57.1 µM
Out of some 16,000 compounds screened, about 5,700 (36%) were called active. Roughly 24% stayed inconclusive and do not appear here. This is one part of the list.
Quantity: AC50

> print(dat)
                                   compound                             target.system  quantity           reading
1   CC(C)(C)C(=O)N1CCc2cc(-c3csc(N)n3)ccc21  Cytochrome P450 1A2 (Homo sapiens) (UniProt P05177)      AC50  7.08 µM (active)
2  C/C(=N\Nc1ccc([N+](=O)[O-])cc1)c1cccc(N)c1  Cytochrome P450 1A2 (Homo sapiens) (UniProt P05177)      AC50  1.26 µM (active)
3       c1cncc(-c2ccc3ncnc(N4CCNCC4)c3c2)c1  Cytochrome P450 1A2 (Homo sapiens) (UniProt P05177)      AC50  1.26 µM (active)
4  CCOC(=O)C1=C(CSc2nc(-c3ccccc3)ccc2C#N)OC(N)=C(C#N)C1c1ccc(OC)cc1 (configuration not stated)  Cytochrome P450 1A2 (Homo sapiens) (UniProt P05177)      AC50     2 µM (active)
5                 C/C(=N\O)c1ccc2[nH]ccc2c1  Cytochrome P450 1A2 (Homo sapiens) (UniProt P05177)      AC50  4.47 µM (active)
6  COc1ccc(NC(=O)N(C2CCCCC2)C(C)c2cccnc2)c(OC)c1 (configuration not stated)  Cytochrome P450 1A2 (Homo sapiens) (UniProt P05177)      AC50  14.1 µM (active)

###

Biological target: Cytochrome P450 1A2 (Homo sapiens) (UniProt P05177)
Assay: Cytochrome panel assay with activity outcomes
Settings: recombinant CYP, pro-luciferin dealkylation, luminescence, p450-cyp1a2; series mostly up to 57.1 µM
Experimental: The P450 gene superfamily is involved in the metabolism and clearance of xenobiotics. This assay used various human CYP P450 isozymes to measure the dealkylation of various pro-luciferin substrates to luciferin. The luciferin is then measured by luminescence after the addition of a luciferase detection reagent. […] Inhibitors and some substrates limit the production of luciferin, and decrease measured luminescence. […] 8, Detection, 1 sec, ViewLux luminescent read […]
About 5,700 (36%) of roughly 16,000 compounds were called active. Another 24% or so got no clear call; they are omitted. The list shows a part of the results.
Quantity: AC50

> print(dat)
                                    compound            reading
 1  COc1ccc(-n2ccnc2SCC(=O)Nc2ccc(OC)cc2OC)cc1   6310 nM (active)
 2  CCN(c1ccccc1)S(=O)(=O)c1ccc(NC(=S)NC(=O)c2cccs2)cc1           inactive
 3  CC1CC(OCC(O)CN2CCN(Cc3ccccc3)CC2)CC(C)(C)C1 (stereo not drawn)           inactive
 4            Cc1cccc(NC(=S)NC(=O)c2cccs2)n1    794 nM (active)
 5  Cn1c(=O)[nH]c(=O)c2c1nc(CN1CCOCC1)n2CCCO           inactive
 6  CCN(CC(=O)Nc1ccc([N+](=O)[O-])cc1OC)c1ccccc1  12600 nM (active)
 7  CCNc1ncc2nc(-c3cccc(C#N)c3)c(=O)n(C)c2n1   2510 nM (active)
 8    CCNc1ncc2nc(-c3ccc(F)cc3)c(=O)n(C)c2n1    501 nM (active)
 9  NS(=O)(=O)c1ccc(N=Nc2cc3ccccc3c(C(=O)O)c2O)cc1   1000 nM (active)
10  COc1ccc([N+](=O)[O-])cc1NC(=O)CC(C)c1ccccc1 (stereo not drawn)   5010 nM (active)
11  COC(=O)[C@@]1(Cc2ccc(F)cc2)[C@H]2c3cc(C(=O)N(C)C)n(Cc4ccc(C)o4)c3C[C@H]2CN1C(=O)c1ccccc1           inactive
12  Cc1cccc(C)c1-n1c(SCC(=O)NCc2ccco2)nc2ccccc2c1=O           inactive
13  CCc1ccc(-c2cc(C(=O)NCc3ccco3)c3ccccc3n2)s1   3550 nM (active)
14  Cc1ccc(S(=O)(=O)N(Cc2ccccc2)c2ccccc2C(=O)NCc2ccco2)cc1           inactive
15  Cc1ccc(CN2C(=O)CCC2C(=O)NCc2cccnc2)cc1 (stereo not drawn)           inactive
16  CCOc1ccc(-n2c(SCC(=O)Nc3ccc(OC)cc3OC)nc3c(c2=O)SCC3)cc1           inactive
17           Cc1ccc(Nc2ccc(-n3ccnc3)nn2)cc1C    158 nM (active)
18  N#Cc1cccc(NC(=O)N2CCC3(CC2)CCN(C(=O)c2cccc(F)c2)CC3)c1           inactive
19  COc1ccc(COC2OC[C@]3(C)[C@H]4C5=C(CN3C(=O)OC(C)(C)C)[C@H](C)C(CO)C(CO)C5CC[C@@H]24)cc1 (stereo partly drawn)           inactive
20  Cc1ccc(NC2c3ncccc3C(=O)N2Cc2ccc(F)cc2)cc1 (stereo not drawn)  11200 nM (active)
21       CCNc1ncc2nc(-c3ccccc3)c(=O)n(C)c2n1    398 nM (active)
22  OC1(c2ccc(OC(F)F)cc2)CSC(=Nc2cccnc2)N1C1CC1 (stereo not drawn)   1120 nM (active)
23  O=C1OCCC1Sc1nnc(-c2ccc(O)cc2)o1 (stereo not drawn)   2240 nM (active)
24  COc1ccc(/C=N/NC(=S)NC2CCS(=O)(=O)C2)cc1OC (stereo not drawn)   6310 nM (active)
25  COC(=O)C1=C(C)NC2=C(C(=O)CCC2)C1c1cn(Cc2ccc(Cl)cc2Cl)nc1-c1ccccc1 (stereo not drawn)           inactive
26  O=C(N/N=C/c1c[nH]c2ccccc12)c1ccn(Cc2ccc(Cl)cc2Cl)n1    708 nM (active)
27  S=C1N(c2ccccc2)C(c2ccc(Cl)cc2)N2CCCN12 (stereo not drawn)   4470 nM (active)
28  CC(C)OC(=O)C(CC(=O)O)N1CCOCC1 (stereo not drawn)           inactive
